Procedure Summary: ORAC assay
Format: biochemical
Details: Trolox equivalents
# binarize ORAC TE: threshold 0.8 TE inclusive, high side rule met, low side rule not met

Dear colleague, could you confirm whether `CC1(C)CC[C@]2(C(=O)O)CC[C@]3(C)C(=CC[C@@H]4[C@@]5(C)CC[C@H](O)C(C)(C)[C@@H]5CC[C@]43C)[C@@H]2C1` has ORAC TE at or above 0.8 TE?
rule not met

What would you report for C[C@@H]1O[C@@H](OC[C@H]2O[C@@H](Oc3c(-c4ccc(O)c(O)c4)oc4cc(O)cc(O)c4c3=O)[C@H](O)[C@@H](O)[C@@H]2O)[C@H](O)[C@H](O)[C@H]1O [Rutin, Quercetin-3-O-rutoside] ?
rule met

Another compound: `O=C(/C=C/c1ccc(O)c(O)c1)O[C@H](Cc1ccc(O)c(O)c1)C(=O)O`
rule not met

Also O=c1c(O)c(-c2ccc(O)c(O)c2)oc2cc(O)cc(O)c12 [Quercetin, quercetin, reference compound] , if possible.
rule met

And then `C[C@H]1[C@H](C)CC[C@]2(C(=O)O)CC[C@]3(C)C(=CC[C@@H]4[C@@]5(C)CC[C@H](O)C(C)(C)[C@@H]5CC[C@]43C)[C@H]12` , what is it?
rule not met
